# Tested on: model rats of middle cerebral artery thrombosis (MCAT)
# run-description: Effects on neural symptoms of MCAT rats (behavioral score)
# Format: in vivo, SD rats
# recorded-conditions: 100 mg/kg by gavage, 24 hours after operation, full mark 4
Form field: Scores 24 hours (one value per entry).

{"compound": "CCCCC(O)c1ccccc1C(=O)[O-].[K+] (stereo not drawn) [Potassium 2-(α-hydroxypentyl)benzoate]", "Scores 24 hours": 3.00}
{"compound": "CCC/C=C1/OC(=O)c2ccccc21 [3-n-butenylphthalide]", "Scores 24 hours": 2.91}
{"compound": "CCCCC(=O)c1ccccc1C(=O)O.CCCCC(=O)c1ccccc1C(=O)O.c1ccc(CNCCNCc2ccccc2)cc1", "Scores 24 hours": 2.36}
{"compound": "CCCCC(O)c1ccccc1C(=O)O (stereo not drawn) [Calcium 2-(α-hydroxypentyl)benzoate]", "Scores 24 hours": 3.09}
{"compound": "CCCCC(=O)c1ccccc1C(=O)[O-].[K+] [Potassium 2-(α-n-pentanonyl)benzoate, potassium 2-(α-n-pentanonyl)benzoate]", "Scores 24 hours": 2.82}
{"compound": "CCCCC(=O)c1ccccc1C(=O)O [Calcium 2-(α-n-pentanonyl)benzoate, calcium 2-(α-n-pentanonyl)benzoate]", "Scores 24 hours": 2.90}
{"compound": "CCCCC(=O)c1ccccc1C(=O)[O-].[Na+] [Sodium 2-(α-n-pentanonyl)benzoate, sodium 2-(α-n-pentanonyl)benzoate]", "Scores 24 hours": 2.80}
{"compound": "CCCCC1OC(=O)c2ccccc21 (racemic) [DL-3-n-butylphthalide]", "Scores 24 hours": 3.09}

====

# run-description: Thermal stability (purity by HPLC)
# recorded-conditions: 10 days at 60°C
reported-metric: decomposed product (thermal stability)

{"compound": "CCCCC(=O)c1ccccc1C(=O)O.CCCCC(=O)c1ccccc1C(=O)O.c1ccc(CNCCNCc2ccccc2)cc1", "reported-metric": "decomposed product (thermal stability)", "value-measured": "no decomposed product"}
{"compound": "CCCCC(=O)c1ccccc1C(=O)O [Calcium 2-(α-n-pentanonyl)benzoate, calcium 2-(α-n-pentanonyl)benzoate]", "reported-metric": "decomposed product (thermal stability)", "value-measured": "no decomposed product"}
{"compound": "CCCCC(=O)c1ccccc1C(=O)[O-].[Na+] [Sodium 2-(α-n-pentanonyl)benzoate, sodium 2-(α-n-pentanonyl)benzoate]", "reported-metric": "decomposed product (thermal stability)", "value-measured": "no decomposed product"}
{"compound": "CCCCC(=O)c1ccccc1C(=O)[O-].[K+] [Potassium 2-(α-n-pentanonyl)benzoate, potassium 2-(α-n-pentanonyl)benzoate]", "reported-metric": "decomposed product (thermal stability)", "value-measured": "no decomposed product"}

====

# System: model rats of middle cerebral artery thrombosis (MCAT)
# run-description: Effects on neural symptoms of MCAT rats (behavioral score)
# Format: in vivo, SD rats
# recorded-conditions: 50 mg/kg by gavage, 6 hours after operation, full mark 4
Property: Scores 6 hours; scope: individual compounds

{"compound": "CCCCC(=O)c1ccccc1C(=O)O [Calcium 2-(α-n-pentanonyl)benzoate, calcium 2-(α-n-pentanonyl)benzoate]", "Scores 6 hours": 3.18}
{"compound": "CCCCC(O)c1ccccc1C(=O)O (stereo not drawn) [Calcium 2-(α-hydroxypentyl)benzoate]", "Scores 6 hours": 3.45}
{"compound": "CCCCC(=O)c1ccccc1C(=O)[O-].[K+] [Potassium 2-(α-n-pentanonyl)benzoate, potassium 2-(α-n-pentanonyl)benzoate]", "Scores 6 hours": 3.27}
{"compound": "CCCCC(=O)c1ccccc1C(=O)O.CCCCC(=O)c1ccccc1C(=O)O.c1ccc(CNCCNCc2ccccc2)cc1", "Scores 6 hours": 3.45}
{"compound": "CCCCC1OC(=O)c2ccccc21 (racemic) [DL-3-n-butylphthalide]", "Scores 6 hours": 3.36}
{"compound": "CCCCC(O)c1ccccc1C(=O)[O-].[K+] (stereo not drawn) [Potassium 2-(α-hydroxypentyl)benzoate]", "Scores 6 hours": 3.50}
{"compound": "CCCCC(=O)c1ccccc1C(=O)[O-].[Na+] [Sodium 2-(α-n-pentanonyl)benzoate, sodium 2-(α-n-pentanonyl)benzoate]", "Scores 6 hours": 3.40}
{"compound": "CCC/C=C1/OC(=O)c2ccccc21 [3-n-butenylphthalide]", "Scores 6 hours": 3.50}

====

# Test system: model rats of middle cerebral artery thrombosis (MCAT)
# run-description: Effects on neural symptoms of MCAT rats (behavioral score)
# Type: in vivo, SD rats
# recorded-conditions: 100 mg/kg by gavage, 6 hours after operation, full mark 4
Recorded Scores 6 hours, one value per entry.

{"compound": "CCCCC(O)c1ccccc1C(=O)[O-].[K+] (stereo not drawn) [Potassium 2-(α-hydroxypentyl)benzoate]", "Scores 6 hours": 3.55}
{"compound": "CCCCC(=O)c1ccccc1C(=O)O [Calcium 2-(α-n-pentanonyl)benzoate, calcium 2-(α-n-pentanonyl)benzoate]", "Scores 6 hours": 3.40}
{"compound": "CCCCC1OC(=O)c2ccccc21 (racemic) [DL-3-n-butylphthalide]", "Scores 6 hours": 3.36}
{"compound": "CCCCC(=O)c1ccccc1C(=O)O.CCCCC(=O)c1ccccc1C(=O)O.c1ccc(CNCCNCc2ccccc2)cc1", "Scores 6 hours": 3.45}

====

# Test system: thrombosis of artery-vein bypass in rats
# run-description: Effects on thrombosis of artery-vein bypass in rats
# Assay type: in vivo, SD rats
# recorded-conditions: 50 mg/kg, vs. thrombus model group
Overview of reported Inhibition (wet-weight of thrombus) across a group of molecules:

{"molecule": "CCCCC(=O)c1ccccc1C(=O)[O-].[Na+] [Sodium 2-(α-n-pentanonyl)benzoate, sodium 2-(α-n-pentanonyl)benzoate]", "Inhibition (wet-weight of thrombus) [%]": 34.31}
{"molecule": "CCCCC(=O)c1ccccc1C(=O)[O-].[K+] [Potassium 2-(α-n-pentanonyl)benzoate, potassium 2-(α-n-pentanonyl)benzoate]", "Inhibition (wet-weight of thrombus) [%]": 19.44}
{"molecule": "CCCCC(=O)c1ccccc1C(=O)O [Calcium 2-(α-n-pentanonyl)benzoate, calcium 2-(α-n-pentanonyl)benzoate]", "Inhibition (wet-weight of thrombus) [%]": 22.92}
{"molecule": "CCC/C=C1/OC(=O)c2ccccc21 [3-n-butenylphthalide]", "Inhibition (wet-weight of thrombus) [%]": 19.59}
{"molecule": "CCCCC(=O)c1ccccc1C(=O)O.CCCCC(=O)c1ccccc1C(=O)O.c1ccc(CNCCNCc2ccccc2)cc1", "Inhibition (wet-weight of thrombus) [%]": 20.10}

====

# Tested on: model rats of middle cerebral artery thrombosis (MCAT)
# run-description: Effects on cerebral infarct area of MCAT rats (TTC staining)
# Type: in vivo, SD rats
# recorded-conditions: 200 mg/kg by gavage, 24 hours after operation
# reported Cerebral infarct tissue weight/total brain weight; entries follow
reported-metric: Cerebral infarct tissue weight/total brain weight (%)

{"compound": "CCCCC(=O)c1ccccc1C(=O)O.CCCCC(=O)c1ccccc1C(=O)O.c1ccc(CNCCNCc2ccccc2)cc1", "value-measured": 4.60}
{"compound": "CCCCC(O)c1ccccc1C(=O)[O-].[K+] (stereo not drawn) [Potassium 2-(α-hydroxypentyl)benzoate]", "value-measured": 5.37}
{"compound": "CCCCC(=O)c1ccccc1C(=O)[O-].[Na+] [Sodium 2-(α-n-pentanonyl)benzoate, sodium 2-(α-n-pentanonyl)benzoate]", "value-measured": 5.19}

====

# System: model rats of middle cerebral artery thrombosis (MCAT)
# run-description: Effects on neural symptoms of MCAT rats (behavioral score)
# Type: in vivo, SD rats
# recorded-conditions: 50 mg/kg by gavage, vs. model group
// label 0 strictly below 20% in % inhibition at hour 24; label 1 otherwise

{"compound": "CCCCC(O)c1ccccc1C(=O)[O-].[K+] (stereo not drawn) [Potassium 2-(α-hydroxypentyl)benzoate]", "assigned-category": "label 0"}
{"compound": "CCCCC1OC(=O)c2ccccc21 (racemic) [DL-3-n-butylphthalide]", "assigned-category": "label 0"}
{"compound": "CCCCC(O)c1ccccc1C(=O)O (stereo not drawn) [Calcium 2-(α-hydroxypentyl)benzoate]", "assigned-category": "label 0"}
{"compound": "CCCCC(=O)c1ccccc1C(=O)[O-].[Na+] [Sodium 2-(α-n-pentanonyl)benzoate, sodium 2-(α-n-pentanonyl)benzoate]", "assigned-category": "label 0"}
{"compound": "CCCCC(=O)c1ccccc1C(=O)O [Calcium 2-(α-n-pentanonyl)benzoate, calcium 2-(α-n-pentanonyl)benzoate]", "assigned-category": "label 1"}
{"compound": "CCC/C=C1/OC(=O)c2ccccc21 [3-n-butenylphthalide]", "assigned-category": "label 0"}

====

# Tested on: thrombosis of artery-vein bypass in rats
# run-description: Effects on thrombosis of artery-vein bypass in rats
# Assay type: in vivo, SD rats
# recorded-conditions: 200 mg/kg by gavage, once per day for 3 days
reported-metric: Dry-weight of thrombus (mg)

{"compound": "CCCCC(=O)c1ccccc1C(=O)[O-].[Na+] [Sodium 2-(α-n-pentanonyl)benzoate, sodium 2-(α-n-pentanonyl)benzoate]", "value-measured": 22.4}
{"compound": "CCC/C=C1/OC(=O)c2ccccc21 [3-n-butenylphthalide]", "value-measured": 24.9}
{"compound": "CCCCC(=O)c1ccccc1C(=O)O.CCCCC(=O)c1ccccc1C(=O)O.c1ccc(CNCCNCc2ccccc2)cc1", "value-measured": 32.3}
{"compound": "CCCCC(=O)c1ccccc1C(=O)[O-].[K+] [Potassium 2-(α-n-pentanonyl)benzoate, potassium 2-(α-n-pentanonyl)benzoate]", "value-measured": 28.3}
{"compound": "CCCCC(=O)c1ccccc1C(=O)O [Calcium 2-(α-n-pentanonyl)benzoate, calcium 2-(α-n-pentanonyl)benzoate]", "value-measured": 30.4}
